- target_system: HRgpA-6H (Porphyromonas gingivalis) (UniProt P28784)
- assay_explanation: ELISA, Fab FASEBA supernatant on coated HRgpA-6H (0.0625 ug/ml)
Ratio OD(Variant)/OD(WT) reference
Lab note: jot the number down without any unit.

Example entries and their recorded answers appear below.
binder	assay_readout	numeric_readout
KB001 parental mouse Fab VH variant N100P (Fab, V domains shown) VH: EVQLKQSGPGLVAPSQSLSITCTVSGFSLSIYSVHWVRQPPGKGLEWLGMIWGGGSSDYNSALKSRLSISKDNSKSQVFLKMNSLQTDDTAMYYCARNGPFYAMDYWGQGTSVTVSS VL: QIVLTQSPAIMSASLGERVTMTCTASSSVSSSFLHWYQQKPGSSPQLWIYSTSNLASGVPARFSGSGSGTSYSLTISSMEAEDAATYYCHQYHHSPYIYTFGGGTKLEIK	Ratio OD(Variant)/OD(WT)	0.894
KB001 parental mouse Fab VH variant A103K (Fab, V domains shown) VH: EVQLKQSGPGLVAPSQSLSITCTVSGFSLSIYSVHWVRQPPGKGLEWLGMIWGGGSSDYNSALKSRLSISKDNSKSQVFLKMNSLQTDDTAMYYCARNGNFYKMDYWGQGTSVTVSS VL: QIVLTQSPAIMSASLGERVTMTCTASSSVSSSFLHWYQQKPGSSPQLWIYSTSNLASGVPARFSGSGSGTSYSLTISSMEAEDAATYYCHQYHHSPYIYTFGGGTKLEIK	Ratio OD(Variant)/OD(WT)	0.839
KB001 parental mouse Fab VH variant Y106Q (Fab, V domains shown) VH: EVQLKQSGPGLVAPSQSLSITCTVSGFSLSIYSVHWVRQPPGKGLEWLGMIWGGGSSDYNSALKSRLSISKDNSKSQVFLKMNSLQTDDTAMYYCARNGNFYAMDQWGQGTSVTVSS VL: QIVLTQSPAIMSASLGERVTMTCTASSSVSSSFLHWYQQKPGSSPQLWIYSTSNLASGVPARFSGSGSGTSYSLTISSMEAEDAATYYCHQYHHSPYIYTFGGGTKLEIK	Ratio OD(Variant)/OD(WT)	0.999
KB001 parental mouse Fab VH variant F101M (Fab, V domains shown) VH: EVQLKQSGPGLVAPSQSLSITCTVSGFSLSIYSVHWVRQPPGKGLEWLGMIWGGGSSDYNSALKSRLSISKDNSKSQVFLKMNSLQTDDTAMYYCARNGNMYAMDYWGQGTSVTVSS VL: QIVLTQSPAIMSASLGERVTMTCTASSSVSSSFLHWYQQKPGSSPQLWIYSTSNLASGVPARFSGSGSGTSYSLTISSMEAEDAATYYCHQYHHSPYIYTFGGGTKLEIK	Ratio OD(Variant)/OD(WT)	0.891

In the following, a different binder is considered.
# Ratio OD(Variant)/OD(WT) lookup, item KB001 parental mouse Fab VH variant A103L (Fab, V domains shown) VH: EVQLKQSGPGLVAPSQSLSITCTVSGFSLSIYSVHWVRQPPGKGLEWLGMIWGGGSSDYNSALKSRLSISKDNSKSQVFLKMNSLQTDDTAMYYCARNGNFYLMDYWGQGTSVTVSS VL: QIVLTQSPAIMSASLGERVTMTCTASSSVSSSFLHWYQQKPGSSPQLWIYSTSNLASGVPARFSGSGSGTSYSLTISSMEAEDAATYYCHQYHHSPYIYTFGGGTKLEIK
0.908
